Numbers sourced from patent US20220315624A1.

# method: Aqueous solubility analysis in MOPS buffer
# Type: physicochemical
# test conditions: aqueous 10 mM MOPS buffer, thermodynamic from solid; after 24 hours in 10 mM aqueous MOPS buffer, pH 7.2
measured quantity: solubility at 24 h (µg/mL)
Record the value in µg/mL, omitting the unit from your answer.

[
  {
    "smiles entry": "C=C(NC(=O)c1csc(C2=N[C@@H]3c4csc(n4)[C@H]4NC(=O)c5csc(n5)[C@H]([C@](C)(O)[C@@H](C)O)NC(=O)C5CSC(=N5)/C(=C/C)NC(=O)[C@H]([C@@H](C)O)NC(=O)c5csc(n5)[C@]3(CC2)NC(=O)[C@H](C)NC(=O)C(=C)NC(=O)[C@H](C)NC(=O)[C@H]([C@@H](C)CC)N[C@@H]2C=Cc3c([C@H](C)O)cc(nc3[C@H]2O)C(=O)O[C@@H]4C)n1)C(=O)NC(=CNC(=O)c1cccc(C(C)=O)c1)C(N)=O",
    "unit abbreviation": "µg/mL",
    "solubility at 24 h": 1.1
  },
  {
    "smiles entry": "C=C(NC(=O)c1csc(C2=N[C@@H]3c4csc(n4)[C@H]4NC(=O)c5csc(n5)[C@H]([C@](C)(O)[C@@H](C)O)NC(=O)C5CSC(=N5)/C(=C/C)NC(=O)[C@H]([C@@H](C)O)NC(=O)c5csc(n5)[C@]3(CC2)NC(=O)[C@H](C)NC(=O)C(=C)NC(=O)[C@H](C)NC(=O)[C@H]([C@@H](C)CC)N[C@@H]2C=Cc3c([C@H](C)O)cc(nc3[C@H]2O)C(=O)O[C@@H]4C)n1)C(=O)NC(=CNC(=O)COCCOC)C(N)=O",
    "unit abbreviation": "µg/mL",
    "solubility at 24 h": 19
  }
]

Form: molecule = "C=C(NC(=O)c1csc(C2=N[C@@H]3c4csc(n4)[C@H]4NC(=O)c5csc(n5)[C@H]([C@](C)(O)[C@@H](C)O)NC(=O)C5CSC(=N5)/C(=C/C)NC(=O)[C@H]([C@@H](C)O)NC(=O)c5csc(n5)[C@]3(CC2)NC(=O)[C@H](C)NC(=O)C(=C)NC(=O)[C@H](C)NC(=O)[C@H]([C@@H](C)CC)N[C@@H]2C=Cc3c([C@H](C)O)cc(nc3[C@H]2O)C(=O)O[C@@H]4C)n1)C(=O)NC(=CNC(=O)COC)C(N)=O" ; solubility at 24 h = 28
